# System: SK-MEL-28 melanoma
# Experimental protocol: NCI tumour cell line growth inhibition, 48 h
Assay metric: TGI

Compound: NS(=O)(=O)c1nc(S(=O)(=O)O)c2[nH]cnc2n1
Target: SK-MEL-28 melanoma
Meas value: > 100 µM
//
Compound: COc1ccc(C#Cn2nnc3ccccc32)cc1
Target: SK-MEL-28 melanoma
Meas value: > 100 µM
//
Compound: Cn1cnc(N)c(N=O)c1=O
Target: SK-MEL-28 melanoma
Meas value: > 10 µM
//
Compound: [N-]=[N+]=NC(c1cn(C2CC(O)C(CO)O2)c(=O)[nH]c1=O)C(Cl)Br (stereo not drawn)
Target: SK-MEL-28 melanoma
Meas value: > 100 µM
//
Compound: CC(C)(C)OC(=O)[C@@H]1CCC(=O)N1C1(c2ccccc2)c2ccccc2-c2ccccc21
Target: SK-MEL-28 melanoma
Meas value: 71.3 µM
//
Compound: O=c1cccccc1[O-].O=c1cccccc1[O-].O=c1cccccc1[O-].[Eu+3]
Target: SK-MEL-28 melanoma
Meas value: > 100 µM
//
Compound: CC1CC[C@@]2(OC1)O[C@H]1[C@H](O)[C@H]3[C@@H]4CC[C@H]5C[C@@H](OC6OC(CO)C(OC7OC(CO)C(O)C(OC8OCC(O)C(O)C8O)C7OC7OC(CO)C(O)C(O)C7OC7OC(CO)C(O)C(O)C7O)C(O)C6O)[C@H](O)C[C@]5(C)[C@H]4CC[C@]3(C)[C@H]1[C@@H]2C (stereo partly drawn)
Target: SK-MEL-28 melanoma
Meas value: > 10 µM
//
Compound: COc1c(C(C)=O)c(OCCCCOc2c(C(C)=O)c(OC)c3ccoc3c2OC)c(OC)c2occc12
Target: SK-MEL-28 melanoma
Meas value: 7.05 µM
//
Compound: N#C/C(=C1\SCC(=O)N1c1ccccc1)c1nc2ccccc2[nH]1
Target: SK-MEL-28 melanoma
Meas value: > 100 µM
//
Compound: Cc1nc2cc(F)c(F)cc2[nH]c1=O
Target: SK-MEL-28 melanoma
Meas value: > 100 µM
//
Compound: O=c1[nH]c(=O)n(C2CC(O)C(CO)O2)cc1Oc1ccccc1 (stereo not drawn)
Target: SK-MEL-28 melanoma
Meas value: > 100 µM
//
Compound: C#CC[C@@]12CC(=O)C[C@@H]1CCC1(C2)OCCO1 (tested in a mixture with another compound)
Target: SK-MEL-28 melanoma
Meas value: > 100 µM
//
Compound: CCOC(=O)NC(=O)c1cn(CCN2CCN(C(=O)CNC(=O)CNC(=O)Cn3cc(C(=O)NC(=O)OCC)c(=O)[nH]c3=O)CC2)c(=O)[nH]c1=O
Target: SK-MEL-28 melanoma
Meas value: > 100 µM
//
Compound: CC(=O)n1cc(C2CC23N=C(c2ccccc2)OC3=O)c2ccccc21 (stereo not drawn)
Target: SK-MEL-28 melanoma
Meas value: 45.6 µM
//
Compound: Cc1ccc(/C=C/c2c(C(=O)/C=C/c3ccccc3)c(C)nc3ccccc23)cc1
Target: SK-MEL-28 melanoma
Meas value: 3.27 µM
//
Compound: CCCC[C@@H](C)/C=C1\CN2CCC[C@H]2[C@@](C)(OCc2ccccc2)[C@@H]1O
Target: SK-MEL-28 melanoma
Meas value: > 50 µM
//
Compound: CN1C(=O)c2ccc3ccccc3c2C1=O
Target: SK-MEL-28 melanoma
Meas value: > 100 µM
//
Compound: O=P1(N2CCOCC2)OCCO1
Target: SK-MEL-28 melanoma
Meas value: > 100 µM
//
Compound: CC(C)/C=C1\CCC(CN2CCOCC2)C1=O (stereo not drawn)
Target: SK-MEL-28 melanoma
Meas value: 32.2 µM
//
Compound: CCOC(=O)C1CC(C(=O)c2ccccc2)N2c3ccccc3-c3ccccc3C12 (stereo not drawn)
Target: SK-MEL-28 melanoma
Meas value: > 100 µM
//
Compound: C/C(=C\c1ccn(-c2ccccc2N)n1)[C@@H]1C[C@@H]2O[C@]2(C)CCC[C@H](C)[C@H](O)[C@@H](C)C(=O)C(C)(C)[C@@H](O)CC(=O)O1
Target: SK-MEL-28 melanoma
Meas value: > 50 µM
//
Compound: O=C(/C(=C(/O)c1ccccc1)c1nc2ccccc2sc1=O)c1ccccc1
Target: SK-MEL-28 melanoma
Meas value: > 100 µM
//
Compound: CC1=CC2C(C(O)CC3(C)C2CC(C)C32OCOC23COCO3)C2(C)C/C(=C/O)C(=O)C=C12 (stereo not drawn)
Target: SK-MEL-28 melanoma
Meas value: 3.51 µM
//
Compound: CSC(=S)Nc1cc(C)cc(C)n1
Target: SK-MEL-28 melanoma
Meas value: > 31.6 µM
//
Compound: C[C@H]1[C@H](C)N1CC(O)Cn1ccnc1[N+](=O)[O-] (stereo partly drawn)
Target: SK-MEL-28 melanoma
Meas value: > 100 µM
//
Compound: COc1ccc(C(=O)Cn2c(C(=O)c3ccccc3)nc3ccccc32)cc1
Target: SK-MEL-28 melanoma
Meas value: > 100 µM
//
Compound: O=C1c2cc(Cc3ccccc3)c(=O)c(Cc3ccccc3)cc2C(=O)c2cc(Cc3ccccc3)c(=O)c(Cc3ccccc3)cc21
Target: SK-MEL-28 melanoma
Meas value: > 100 µM
//
Compound: Cc1cc(-n2nnc(C(=O)O)c2-c2ccccc2)c2ccc(Cl)cc2n1
Target: SK-MEL-28 melanoma
Meas value: > 100 µM
//
Compound: Nc1cc2c(c3ccccc13)C(CCl)CN2C(=O)c1cc2cc(NC(=O)Nc3ccc4[nH]c(C(=O)N5CC(CCl)c6c5cc(N)c5ccccc65)cc4c3)ccc2[nH]1 (stereo not drawn)
Target: SK-MEL-28 melanoma
Meas value: 2.52 µM
//
Compound: O=C(Nc1sccc1S(=O)(=O)c1ccc(Cl)cc1)c1ccc(F)cc1F
Target: SK-MEL-28 melanoma
Meas value: > 100 µM
//
Compound: COc1cc2ccc(C(=O)NCCCNC(=O)c3ccc4cc(OC)c(OC)cc4c3)cc2cc1OC
Target: SK-MEL-28 melanoma
Meas value: > 100 µM
//
Compound: CCOC(=O)c1ccc(Nc2nc3ccccc3nc2-c2cccs2)cc1
Target: SK-MEL-28 melanoma
Meas value: > 100 µM
//
Compound: CCCn1c(SCCSc2c3ccccc3c(-c3nc(F)nc(F)n3)n2CCC)c2ccccc2c1-c1nc(F)nc(F)n1
Target: SK-MEL-28 melanoma
Meas value: > 100 µM
//
Compound: C/C(CC(=O)NCCc1ccccc1)=N\NS(=O)(=O)c1ccc(C)cc1
Target: SK-MEL-28 melanoma
Meas value: > 100 µM
//
Compound: O=[N+]([O-])c1ccc(NN=C2CN3CCN(C2)c2ccccc23)c([N+](=O)[O-])c1
Target: SK-MEL-28 melanoma
Meas value: > 100 µM
//
Compound: Nc1ccn(C2CC(F)C(CO)O2)c(=O)n1 (stereo not drawn)
Target: SK-MEL-28 melanoma
Meas value: > 100 µM
//
Compound: NCCCN(CCCCN(CCCN)C(=O)OCc1ccccc1)C(=O)OCc1ccccc1
Target: SK-MEL-28 melanoma
Meas value: > 100 µM
//
Compound: COc1ccc(-c2c(C)c(C(=O)O)nc(-c3ccc4c(O)c(OC)c5c(c4n3)=NC(C)(C)N=5)c2N)c(O)c1OC
Target: SK-MEL-28 melanoma
Meas value: 59.8 µM
